Data provenance is patent US9657015B2.

- MEASUREMENT TARGET: Human neutrophil elastase (Homo sapiens (Human), UniProt P08246)
- Sequence (P08246 30-247): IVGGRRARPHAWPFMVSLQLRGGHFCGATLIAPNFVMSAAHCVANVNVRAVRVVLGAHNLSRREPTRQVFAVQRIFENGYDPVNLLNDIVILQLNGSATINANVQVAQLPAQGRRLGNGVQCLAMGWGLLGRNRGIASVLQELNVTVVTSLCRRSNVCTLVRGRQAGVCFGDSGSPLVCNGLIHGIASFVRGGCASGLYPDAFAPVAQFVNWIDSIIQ
- ASSAY PROTOCOL: Human Neutrophil Elastase Assay
- CONDITION SET: substrate MeOSuc-Ala-Ala-Pro-Val-AMC 250 μM, pH 7.5, room temperature
pIC50: −log10 of the molar value.

| MOLECULE | MEASUREMENT TARGET | pIC50 |
| --- | --- | --- |
| CN(C)C(=O)CN1C(=O)N(c2cccc(C(F)(F)F)c2)C2=C(C(=O)N(C)CC2)C1c1ccc(C#N)cc1 (stereo not drawn) [Example 15.1] | Human neutrophil elastase (Homo sapiens (Human), UniProt P08246) | > 9.00 |
| CN1CCC2=C(C1=O)C(c1ccc(C#N)cc1CO)N(C)C(=O)N2c1cccc(C(F)(F)F)c1 (stereo not drawn) [Example 38] | Human neutrophil elastase (Homo sapiens (Human), UniProt P08246) | > 9.00 |
| N#Cc1ccc(C2C3=C(CCNC3=O)N(c3cccc(C(F)(F)F)c3)C(=O)N2CC(=O)N2CCOCC2)cc1 (stereo not drawn) [Example 12.7] | Human neutrophil elastase (Homo sapiens (Human), UniProt P08246) | > 9.00 |
